Here, each record is paired with measured mortality at 15.625 µg/mL data.
System: Mythimna separata
Test: Insecticidal activity against Mythimna separata (Oriental armyworm) second-instar larvae reared on compound pre-treated corn disks assessed as larval mortality at 15.625 mg/L measured 7 days post compound treatment by leaf-dip method
Type: functional

As a guide, the following entries are already answered.
[[record]]
chemical_string = "O=C(NC(=O)c1c(F)cccc1F)Nc1ccc(Br)cc1C(F)(C(F)(F)F)C(F)(F)F"
quantity_kind = "mortality at 15.625 µg/mL"
val = "56.6%"

[[record]]
chemical_string = "O=C(NC(=O)c1c(F)cccc1F)Nc1ccc(C(F)(C(F)(F)F)C(F)(F)F)cc1"
quantity_kind = "mortality at 15.625 µg/mL"
val = "43.3%"

[[record]]
chemical_string = "O=C(NC(=O)c1c(F)cccc1F)Nc1ccc(C(F)(C(F)(F)F)C(F)(F)F)cc1Cl"
quantity_kind = "mortality at 15.625 µg/mL"
val = "20%"

[[record]]
chemical_string = "Cc1cc(C(F)(C(F)(F)F)C(F)(F)F)ccc1NC(=O)NC(=O)c1c(F)cccc1F"
quantity_kind = "mortality at 15.625 µg/mL"
val = "56.6%"

[[record]]
chemical_string = "O=C(NC(=O)c1c(F)cccc1F)Nc1ccc(C(F)(C(F)(F)F)C(F)(F)F)c(Cl)c1"
quantity_kind = "mortality at 15.625 µg/mL"
val = "86.6%"


Moving on to another compound below.
Item `O=C(NC(=O)c1c(F)cccc1F)Nc1ccc(C(F)(C(F)(F)F)C(F)(F)F)c(Br)c1` has what recorded mortality at 15.625 µg/mL?
46.6%

Ref: ChEMBL document CHEMBL3044760
